Origin of values: paper PMC7588595

- TEST SYSTEM: human AspH (His6-AspH315–758) (Homo sapiens, UniProt Q12797)
- Construct: N-Terminally His6-tagged human AspH315–758 (His6-AspH315–758) was produced in Escherichia coli BL21 (DE3) cells; made in house; host or cells: Escherichia coli BL21 (DE3), pET-28a(+) vector
- EXPERIMENT NOTES: SPE-MS AspH inhibition assay (hFX-CP101-119 substrate hydroxylation)
- Assay type: biochemical
- CONDITION SUMMARY: AspH-inhibitor screening, 384-well Plate 1
Overview of recorded Plate 1 (% inhibition) for various compounds
Kindly provide the numeric value in % only, without the unit symbol.

The value of Plate 1 (% inhibition) recorded for CS(=O)(=O)N1CCN(Cc2cc3nc(-c4cccc5[nH]ncc45)nc(N4CCOCC4)c3s2)CC1 [GDC-0941_Pictilisib] when tested on human AspH (His6-AspH315–758) (Homo sapiens, UniProt Q12797) reads 1.37

====

- TEST SYSTEM: human AspH (His6-AspH315–758) (Homo sapiens)
- Construct: N-Terminally His6-tagged human AspH315–758 (His6-AspH315–758) was produced in Escherichia coli BL21 (DE3) cells; made in house; host or cells: Escherichia coli BL21 (DE3), pET-28a(+) vector
- EXPERIMENT NOTES: SPE-MS AspH inhibition assay (hFX-CP101-119 substrate hydroxylation)
- Type: biochemical
- CONDITION SUMMARY: AspH-inhibitor screening, Plate 1-duplicate, substrate conversion
Where a name gives a salt, the structure may show the parent alone.
Label criterion not met if Plate 1-duplicate (% conversion) falls below 50%; label criterion met in every other case.

Reference set, count: 5
{"COMPOUND": "CCN(CC)CCNC(=O)c1c(C)[nH]c(/C=C2\\C(=O)Nc3ccc(F)cc32)c1C", "GROUP LABEL": "criterion met"}
{"COMPOUND": "CC[C@H](Nc1ncnc2[nH]cnc12)c1nc2cccc(F)c2c(=O)n1-c1ccccc1 [Idelalisib]", "GROUP LABEL": "criterion not met"}
{"COMPOUND": "CC(C)C[C@H](NC(=O)[C@H](CCc1ccccc1)NC(=O)CN1CCOCC1)C(=O)N[C@@H](Cc1ccccc1)C(=O)N[C@@H](CC(C)C)C(=O)[C@@]1(C)CO1", "GROUP LABEL": "criterion met"}
{"COMPOUND": "Nc1cccc2c1C(=O)N(C1CCC(=O)NC1=O)C2=O (stereo not shown) [Pomalidomide]", "GROUP LABEL": "criterion met"}
{"COMPOUND": "CNC(=O)c1cc(Oc2ccc(NC(=O)Nc3ccc(Cl)c(C(F)(F)F)c3)cc2)ccn1", "GROUP LABEL": "criterion not met"}

Assess whether reported Plate 1-duplicate (% conversion) for "CC[C@H](CC#N)OC(=O)N[C@@H](C)c1cccc(NC(=O)Nc2ccc(-c3cnco3)c(OC)c2)c1" sits at 50% or higher. criterion met

Assess whether reported Plate 1-duplicate (% conversion) for COc1cc2nccc(Oc3ccc(NC(=O)C4(C(=O)Nc5ccc(F)cc5)CC4)cc3)c2cc1OC [XL184_Cabozantinib] sits at 50% or higher. criterion met

Assess whether reported Plate 1-duplicate (% conversion) for "Cn1cc(CNCC2CCN(c3ncc(C(=O)NO)cn3)CC2)c2ccccc21" sits at 50% or higher. criterion met

Assess whether reported Plate 1-duplicate (% conversion) for "C=C(c1ccc(C(=O)O)cc1)c1cc2c(cc1C)C(C)(C)CCC2(C)C" sits at 50% or higher. criterion met

Assess whether reported Plate 1-duplicate (% conversion) for "CCN(CCO)CCCOc1ccc2c(Nc3cc(CC(=O)Nc4cccc(F)c4)[nH]n3)ncnc2c1" sits at 50% or higher. criterion met

Assess whether reported Plate 1-duplicate (% conversion) for "CCn1c(-c2nonc2N)nc2cnc(Oc3cccc(NC(=O)c4ccc(OCCN5CCOCC5)cc4)c3)cc21" sits at 50% or higher. criterion met

Assess whether reported Plate 1-duplicate (% conversion) for "Nc1cc(C(F)(F)F)c(-c2cc(N3CCOCC3)nc(N3CCOCC3)n2)cn1" sits at 50% or higher. criterion met

Assess whether reported Plate 1-duplicate (% conversion) for CC/C(=C(\c1ccc(O)cc1)c1ccc(OCCN(C)C)cc1)c1ccccc1 [4-hydroxytamoxifen] sits at 50% or higher. criterion met

Assess whether reported Plate 1-duplicate (% conversion) for CC[C@]1(O)C[C@@H]2CN(CCc3c([nH]c4ccccc34)[C@@](C(=O)OC)(c3cc4c(cc3OC)N(C)[C@H]3[C@@](O)(C(=O)OC)[C@H](OC(C)=O)[C@]5(CC)C=CCN6CC[C@]43[C@@H]65)C2)C1 [Vinblastine sulfate] sits at 50% or higher. criterion met

====

- TEST SYSTEM: human AspH (His6-AspH315–758) (Homo sapiens, UniProt Q12797)
- Construct: N-Terminally His6-tagged human AspH315–758 (His6-AspH315–758) was produced in Escherichia coli BL21 (DE3) cells; made in house; host or cells: Escherichia coli BL21 (DE3), pET-28a(+) vector
- Sequence (Q12797 315-758): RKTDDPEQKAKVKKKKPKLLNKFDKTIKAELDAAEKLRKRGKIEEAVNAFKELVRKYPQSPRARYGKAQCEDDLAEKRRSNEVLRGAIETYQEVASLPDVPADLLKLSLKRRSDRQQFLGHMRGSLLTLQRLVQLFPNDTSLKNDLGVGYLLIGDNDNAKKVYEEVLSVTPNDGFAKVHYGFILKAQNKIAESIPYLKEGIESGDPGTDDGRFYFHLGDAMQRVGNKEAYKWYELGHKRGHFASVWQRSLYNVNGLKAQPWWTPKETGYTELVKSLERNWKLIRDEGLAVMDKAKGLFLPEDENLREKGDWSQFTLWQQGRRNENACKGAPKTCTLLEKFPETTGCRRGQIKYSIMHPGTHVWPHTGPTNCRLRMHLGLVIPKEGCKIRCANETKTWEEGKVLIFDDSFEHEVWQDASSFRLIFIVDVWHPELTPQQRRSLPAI
- EXPERIMENT NOTES: SPE-MS AspH inhibition assay (hFX-CP101-119 substrate hydroxylation)
- Type: biochemical
- CONDITION SUMMARY: read-out: IC50 at 20 μM Fe(II); 20 μM Fe(II) instead of 2 μM Fe(II)
Overview of recorded IC50 for various compounds
Kindly provide the numeric value in µM only, without the unit symbol.

Recorded results for 3 compounds are shown here.
{"COMPOUND": "CO[C@@H]1[C@H](N(C)C(=O)c2ccccc2)C[C@H]2O[C@]1(C)n1c3ccccc3c3c4c(c5c6ccccc6n2c5c31)C(=O)NC4 [Midostaurin, reference compound]", "TEST SYSTEM": "human AspH (His6-AspH315–758) (Homo sapiens, UniProt Q12797)", "IC50 [µM]": 7.28}
{"COMPOUND": "O=C(CCCCCCC(=O)Nc1ccc([C@H]2O[C@@H](CSc3nc(-c4ccccc4)c(-c4ccccc4)o3)C[C@@H](c3ccc(CO)cc3)O2)cc1)NO [Tubacin, reference compound]", "TEST SYSTEM": "human AspH (His6-AspH315–758) (Homo sapiens, UniProt Q12797)", "IC50 [µM]": 4.91}
{"COMPOUND": "CN(C)CC[C@H](CSc1ccccc1)Nc1ccc(S(=O)(=O)NC(=O)c2ccc(N3CCN(Cc4ccccc4-c4ccc(Cl)cc4)CC3)cc2)cc1[N+](=O)[O-] [ABT-737, reference compound]", "TEST SYSTEM": "human AspH (His6-AspH315–758) (Homo sapiens, UniProt Q12797)", "IC50 [µM]": 2.92}

The value of IC50 recorded for O=C(/C=C/c1cccc(S(=O)(=O)Nc2ccccc2)c1)NO [Belinostat, reference compound] when tested on human AspH (His6-AspH315–758) (Homo sapiens, UniProt Q12797) reads 3.1

The value of IC50 recorded for CC1(C)CCC(CN2CCN(c3ccc(C(=O)NS(=O)(=O)c4ccc(NCC5CCOCC5)c([N+](=O)[O-])c4)c(Oc4cnc5[nH]ccc5c4)c3)CC2)=C(c2ccc(Cl)cc2)C1 [Venetoclax, reference compound] when tested on human AspH (His6-AspH315–758) (Homo sapiens, UniProt Q12797) reads 1.29

====

Overview of recorded Plate 1 (% conversion) for various compounds
- TEST SYSTEM: human AspH (His6-AspH315–758) (Homo sapiens)
- Construct: N-Terminally His6-tagged human AspH315–758 (His6-AspH315–758) was produced in Escherichia coli BL21 (DE3) cells; made in house; host or cells: Escherichia coli BL21 (DE3), pET-28a(+) vector
- EXPERIMENT NOTES: SPE-MS AspH inhibition assay (hFX-CP101-119 substrate hydroxylation)
- Assay type: biochemical
Kindly provide the numeric value in % only, without the unit symbol.

Recorded results for 4 compounds are shown here.
{"COMPOUND": "CC[C@H](CO)Nc1nc(NCc2ccccc2)c2ncn(C(C)C)c2n1", "MEASURED ENDPOINT": "Plate 1 (% conversion)", "U": "%", "RESULT NUMBER": 48.67}
{"COMPOUND": "C[C@]12C=CC(=O)C=C1CC[C@@H]1[C@@H]2[C@@H](O)C[C@@]2(C)[C@H]1CC[C@]2(O)C(=O)CO", "MEASURED ENDPOINT": "Plate 1 (% conversion)", "U": "%", "RESULT NUMBER": 40.92}
{"COMPOUND": "Cl.c1ccc(C2CN3CCSC3=N2)cc1 (stereo not drawn) [Tetramisole HCl]", "MEASURED ENDPOINT": "Plate 1 (% conversion)", "U": "%", "RESULT NUMBER": 46.13}
{"COMPOUND": "CS(=O)(=O)CCNCc1ccc(-c2ccc3ncnc(Nc4ccc(OCc5cccc(F)c5)c(Cl)c4)c3c2)o1.Cc1ccc(S(=O)(=O)O)cc1.Cc1ccc(S(=O)(=O)O)cc1 [Lapatinib, di-p-toluenesulfonate salt]", "MEASURED ENDPOINT": "Plate 1 (% conversion)", "U": "%", "RESULT NUMBER": 63.38}

Given item O=P1(N(CCCl)CCCl)NCCCO1 (stereo not drawn) [Cyclophosphamide] , the value recorded as its Plate 1 (% conversion) is 44.96

Given item "C1CN1c1nc(N2CC2)nc(N2CC2)n1" , the value recorded as its Plate 1 (% conversion) is 46.54
